Each recorded value in this set is attributed to paper PMC5511257.

Target: T1, Human carboxypeptidase B1 (hCPB1) (human, UniProt P15086 111-417)
T1 construct: also called human CPB1
T1 sequence (looked up): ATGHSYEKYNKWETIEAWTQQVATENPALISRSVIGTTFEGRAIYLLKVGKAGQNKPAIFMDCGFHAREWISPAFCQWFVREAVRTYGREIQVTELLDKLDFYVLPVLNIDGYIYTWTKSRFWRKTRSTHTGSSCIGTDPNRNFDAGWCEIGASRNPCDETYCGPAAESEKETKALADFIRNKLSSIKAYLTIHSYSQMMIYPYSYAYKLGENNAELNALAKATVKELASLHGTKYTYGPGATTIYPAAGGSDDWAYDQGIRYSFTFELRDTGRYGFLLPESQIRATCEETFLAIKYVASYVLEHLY
Test: enzyme inhibition kinetics (tight-binding inhibitor, Morrison equation); CPBs: inhibition of hydrolysis of N-(4-methoxyphenylazoformyl)-Arg-OH (0.1 mM) at 355 nm; 20 mM Tris-HCl pH 7.5, 1% v/v DMSO, 0.05% w/v Brij-35, 0.1 M NaCl; 37 °C; enzyme constant (6.0 nM hCPB1 and pCPB1), increasing amounts of inhibitor
Settings: both partners purified
Bridges are numbered along the chain shown (N, C = ends). Where no end group is shown, it is not given here.
metric.name: pKi
Reminder that pKi is minus the log10 of a molar concentration.

binder="Nerita versicolor carboxypeptidase inhibitor (NvCI), native (natural protein, UniProt P86912 1-53, looked up, disulfide 15-51, 9-23, 27-38, comprises 53 residues, C-terminal tail Cys51-Tyr52-Ala53; also called native NvCI; 3S-S native form; source: Pichia pastoris, secreted into the extracellular medium, purified (ion exchange, size exclusion); repurified by RP-HPLC) FHVPDDRPCINPGRCPLVPDATCTFVCKAADNDFGYECQHVWTFEGQRVGCYA" test_result=9.21

// next entry
Ask | Return reported pKi; argument: des(15–51) NvCI folding/unfolding intermediate (natural protein, Nerita versicolor, UniProt P86912 1-53, looked up, disulfide 9-23, 27-38; cysteine pairing not given here, differs only in the missing Cys15-Cys51 disulfide; also called intermediate IIb; fraction IIb) FHVPDDRPCINPGRCPLVPDATCTFVCKAADNDFGYECQHVWTFEGQRVGCYA
Reply | 8.11
